Source: paper PMC2731040

Assay: Plasma pharmacokinetics of cocaine and benzoylecgonine after IV cocaine-d5 infusion
Details: human, in vivo, λz, Pre Selegiline (session 1); plasma; mean ± SD
measured parameter: k el (s⁻¹)
Please reply with the bare figure in s⁻¹ and do not write the unit itself.

In plain terms, COC(=O)[C@H]1[C@@H](OC(=O)c2ccccc2)C[C@@H]2CC[C@H]1N2C has a documented k el of 0.000126

----------
Assay: Plasma pharmacokinetics of cocaine and benzoylecgonine after IV cocaine-d5 infusion
Settings: human, in vivo, Tmax, With Selegiline (session 2); plasma; mean ± SD
measured parameter: Tmax (h)
Lab book: enter the figure in h, no units written.

Recorded result, COC(=O)[C@H]1[C@@H](OC(=O)c2ccccc2)C[C@@H]2CC[C@H]1N2C [Cocaine, cocaine] , Tmax: 2.27

----------
Assay: Plasma pharmacokinetics of cocaine and benzoylecgonine after IV cocaine-d5 infusion
Conditions: human, in vivo, AUC (0-t), Pre Selegiline (session 1); plasma; mean ± SD
measured parameter: AUC(0-t)

Looking up COC(=O)[C@H]1[C@@H](OC(=O)c2ccccc2)C[C@@H]2CC[C@H]1N2C , I found its AUC(0-t) recorded as 2640 ng·h/mL

----------
Assay: Plasma pharmacokinetics of cocaine and benzoylecgonine after IV cocaine-d5 infusion
Settings: human, in vivo, (t1/2)z, Pre Selegiline (session 1); plasma; mean ± SD
measured parameter: half-life (h)
Provide only the numeric value, understood in h.

// half-life value for COC(=O)[C@H]1[C@@H](OC(=O)c2ccccc2)C[C@@H]2CC[C@H]1N2C [Cocaine, cocaine] : 1.71

----------
Assay: Plasma pharmacokinetics of cocaine and benzoylecgonine after IV cocaine-d5 infusion
Settings: human, in vivo, AUC (0-∞), With Selegiline (session 2); plasma; mean ± SD
measured parameter: AUC(0-inf) (ng·h/mL)
Report as a plain number; the unit ng·h/mL is understood.

Measured AUC(0-inf), COC(=O)[C@H]1[C@@H](OC(=O)c2ccccc2)C[C@@H]2CC[C@H]1N2C [Cocaine, cocaine] : 2400

----------
Test: Plasma pharmacokinetics of cocaine and benzoylecgonine after IV cocaine-d5 infusion
Settings: human, in vivo, iv, Cmax, Pre Selegiline (session 1); plasma; cocaine-d5 IV 0.5 mg/kg over 10 min then 2 mg/kg over 4 h; mean ± SD
measured parameter: Cmax (ng/mL)
Form entry: value (ng/mL) — number only.

Kindly note the recorded Cmax for COC(=O)[C@H]1[C@@H](OC(=O)c2ccccc2)C[C@@H]2CC[C@H]1N2C , which is 721

----------
Test: Plasma pharmacokinetics of cocaine and benzoylecgonine after IV cocaine-d5 infusion
Conditions: human, in vivo, CL, Pre Selegiline (session 1); plasma; mean ± SD
measured parameter: clearance

The recorded clearance for COC(=O)[C@H]1[C@@H](OC(=O)c2ccccc2)C[C@@H]2CC[C@H]1N2C is 18.3 mL/min/kg

----------
Assay: Plasma pharmacokinetics of cocaine and benzoylecgonine after IV cocaine-d5 infusion
Conditions: human, in vivo, CL, With Selegiline (session 2); plasma; mean ± SD
measured parameter: clearance (mL/min/kg)
Answer format: numeric, mL/min/kg implied, no suffix.

Noted for COC(=O)[C@H]1[C@@H](OC(=O)c2ccccc2)C[C@@H]2CC[C@H]1N2C [Cocaine, cocaine] : its clearance reads 18

----------
Assay: Plasma pharmacokinetics of cocaine and benzoylecgonine after IV cocaine-d5 infusion
Conditions: human, in vivo, AUC (0-∞), Pre Selegiline (session 1); plasma; mean ± SD
measured parameter: AUC(0-inf) (ng·h/mL)
Just the number please, in ng·h/mL, no unit attached.

AUC(0-inf) for COC(=O)[C@H]1[C@@H](OC(=O)c2ccccc2)C[C@@H]2CC[C@H]1N2C is 2680

----------
Assay: Plasma pharmacokinetics of cocaine and benzoylecgonine after IV cocaine-d5 infusion
Settings: human, in vivo, iv, Cmax, With Selegiline (session 2, after one week STS 6 mg/24 hours); plasma; cocaine-d5 IV 0.5 mg/kg over 10 min then 2 mg/kg over 4 h; mean ± SD
measured parameter: Cmax (µg/mL)
The reply should be a number in µg/mL, with the unit left off.

Short answer for COC(=O)[C@H]1[C@@H](OC(=O)c2ccccc2)C[C@@H]2CC[C@H]1N2C : Cmax was 0.64

----------
Experiment: Plasma pharmacokinetics of cocaine and benzoylecgonine after IV cocaine-d5 infusion
Settings: human, in vivo, Tmax, Pre Selegiline (session 1); plasma; mean ± SD
measured parameter: Tmax (h)
Numeric answer only, unit h assumed.

get_value(item= COC(=O)[C@H]1[C@@H](OC(=O)c2ccccc2)C[C@@H]2CC[C@H]1N2C , readout=Tmax) returns 2.66

----------
Assay: Plasma pharmacokinetics of cocaine and benzoylecgonine after IV cocaine-d5 infusion
Conditions: human, in vivo, Vz, With Selegiline (session 2); plasma; mean ± SD
measured parameter: Vd (L/kg)
The response must be a number in L/kg with no trailing unit.

Notebook: COC(=O)[C@H]1[C@@H](OC(=O)c2ccccc2)C[C@@H]2CC[C@H]1N2C , Vd read as 2.44
